We begin with a simple list: items and their reported pIC50.
- subject_of_test: Fatty acid synthase (Homo sapiens)
- protocol_notes: inhibition of human FAS-TE enzyme activity – biochemical, endpoint fluorescence intensity, uHTS hits, dose response (AID 624327)
- assay_conditions: recombinant FAS-TE, OMFH fluorogenic substrate
pIC50: −log10 of the molar value.

Some solved entries appear below for comparison.
compound: O=C(c1ccc(Cl)c([N+](=O)[O-])c1)N1CCN(c2ccccc2)CC1
readout_kind: pIC50
meas_value: 4.92
//
compound: O=C(COc1ccc2c(-c3ccccc3)cc(=O)oc2c1)N[C@@H](Cc1c[nH]c2ccc(O)cc12)C(=O)O
readout_kind: pIC50
meas_value: 5.16
//
compound: CCc1nc2c(OCc3ccc(C(F)(F)F)cc3)cccn2c1N(C=O)Cc1ccc(OC)cc1
readout_kind: pIC50
meas_value: 5.04
//
compound: CCCCC(=O)Nc1nc(-c2ccc(S(=O)(=O)N3CCOCC3)cc2)cs1
readout_kind: pIC50
meas_value: 6.70
//
compound: O=C(C[C@H]1C[C@H](C(=O)N2CCOCC2)[C@@]2(CCC3CCCC3)c3[nH]c4cc(-c5ccco5)ccc4c3CCN2C1=O)NCCc1ccccn1
readout_kind: pIC50
meas_value: 5.16

Next compound, pIC50 to be filled in.
What measured pIC50 is associated with Oc1ccc(Cl)cc1Sc1cc(Cl)ccc1O on Fatty acid synthase (Homo sapiens)?
5.45
